Hello, the source for this data is ChEMBL document CHEMBL1201862, in case you need it.

- Tested on: 786-0
- Test Method Notes: NCI tumour cell line growth inhibition, 48 h
Activity calls are given as the source filed them. No stated cut-off is given here; in the data, active = GI50 up to about 1.1 µM and inactive = higher.
API: response.call in active, inactive

GET /call?item= S=c1c2ccccc2c(=S)n2n1CC=CC2 returns the recorded outcome of this test. inactive

GET /call?item= CCOC(=O)C(=[N+]=[N-])C(=O)CN1C(=O)c2ccccc2C1=O returns the recorded outcome of this test. inactive

GET /call?item= OC1CC2CCC(C1)N2CCCN1c2ccccc2Sc2ccc(Cl)cc21 (centres undefined) returns the recorded outcome of this test. inactive

GET /call?item= COc1ccc2c(c1)CC[C@@H]1C2CC[C@]2(C)C(=O)N(CCN(C)C)C(=O)CC12 (some centres undefined) returns the recorded outcome of this test. inactive

GET /call?item= CO[C@]12C[C@H](CNC(=O)c3ccc[nH]3)O[C@H]1NC(=O)N2 returns the recorded outcome of this test. inactive

GET /call?item= COCN1C(=O)C2CC(/C=C/C(N)=O)=CN2C(=O)c2ccccc21 (centres undefined) returns the recorded outcome of this test. inactive

GET /call?item= COc1cccc(N2CCc3c(C)c(C#N)c4nc5ccccc5n4c32)c1 returns the recorded outcome of this test. inactive

GET /call?item= COC1C=COC2(C)Oc3c(C)c(O)c4c(O)c(c(C5SCCS5)c(O)c4c3C2=O)NC(=O)C(C)=C/C=C\C(C)C2OC(C)(C)OC(C2C)C(C)C(OC(C)=O)C1C (centres undefined) returns the recorded outcome of this test. inactive

GET /call?item= Cc1ccc2nc(-c3ccc(-n4c(C)nc(=O)c(-c5ccc(F)cc5)c4C)cc3)sc2c1 returns the recorded outcome of this test. inactive

GET /call?item= CC(C)(C)CN1[C@@H]2CCCC[C@H]2N(CC(C)(C)C)P1(=O)Cc1ccccc1 returns the recorded outcome of this test. inactive

GET /call?item= C=C1C(C(O)C[C@H](C)C2O[C@@]3(CCCCO3)CCC2C)O[C@@H]2CCC3(CCC(/C=C/[C@@H](C)C4CC(C)=CC5(O4)O[C@H](C[C@](C)(O)C(=O)O)CCC5O)O3)OC2[C@@H]1O (some centres undefined) returns the recorded outcome of this test. active

GET /call?item= CSc1ccc2c(cc1=O)[C@@H](NC(=O)c1cc(O)c(O)c(O)c1)CCc1cc(O)c(O)c(O)c1-2 returns the recorded outcome of this test. inactive

GET /call?item= COc1cccc(N2C(=O)CSC2c2cc(OC)c(OC)c(OC)c2)c1 (centres undefined) returns the recorded outcome of this test. inactive

GET /call?item= COc1cc2c(cc1OCCCOc1cc(-c3ccc(F)cc3)nc(C)n1)N=C[C@@H]1CCCN1C2=O returns the recorded outcome of this test. inactive

GET /call?item= COc1cccc(C(=O)Nc2c3ccccc3nc3ccccc23)c1OC returns the recorded outcome of this test. inactive

GET /call?item= N#Cc1c(N2CCCC2)ncn(Cc2ccccc2)c1=O returns the recorded outcome of this test. inactive

GET /call?item= C=CCC1(CN(C)C)CC/C(=C\c2ccc(Cl)cc2)C1=O (centres undefined) returns the recorded outcome of this test. inactive

GET /call?item= Cc1cc(-c2nc3ccccc3s2)ccc1N returns the recorded outcome of this test. inactive

GET /call?item= CCOC(=O)C1S/C(=N\C(=N)N[N+](=O)[O-])N=C1C (centres undefined) returns the recorded outcome of this test. inactive
